- Test System: OR1 (Homo sapiens, UniProt P41145, G198V/DELINS201-226[…], form not given)
- Sequence (P41145 with tags, fused parts or gaps DELINS198-226[withheld], form open): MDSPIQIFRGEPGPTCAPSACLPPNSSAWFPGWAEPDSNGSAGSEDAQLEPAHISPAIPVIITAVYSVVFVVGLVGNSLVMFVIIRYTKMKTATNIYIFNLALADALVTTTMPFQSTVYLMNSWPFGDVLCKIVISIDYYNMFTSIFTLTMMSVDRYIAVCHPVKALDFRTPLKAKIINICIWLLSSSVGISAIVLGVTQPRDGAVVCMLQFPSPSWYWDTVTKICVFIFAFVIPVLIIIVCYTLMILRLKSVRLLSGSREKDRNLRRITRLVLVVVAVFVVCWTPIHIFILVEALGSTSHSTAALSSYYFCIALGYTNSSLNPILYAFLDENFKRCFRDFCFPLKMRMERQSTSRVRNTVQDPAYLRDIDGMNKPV
- Procedure Summary: Signaling (activation of G protein-mediated signals, adenylyl cyclase inhibition) by OR1
- Test Settings: read-out: EC50, signaling by OR1; signaling by OR1
Measure: pEC50
Numbers only, as −log10 of the molar value.

Asked: Dear colleague, I am looking for the recorded pEC50 of the following molecule: CCC12CCN(CC3(O)CC3)C(Cc3ccc(O)cc31)C2(C)C (stereo not shown) [Bremazocine, bremazocine]
Given back: 10.17

----------
- Test System: Wild-type KOR (Homo sapiens, UniProt P41145)
- Sequence (P41145 whole entry): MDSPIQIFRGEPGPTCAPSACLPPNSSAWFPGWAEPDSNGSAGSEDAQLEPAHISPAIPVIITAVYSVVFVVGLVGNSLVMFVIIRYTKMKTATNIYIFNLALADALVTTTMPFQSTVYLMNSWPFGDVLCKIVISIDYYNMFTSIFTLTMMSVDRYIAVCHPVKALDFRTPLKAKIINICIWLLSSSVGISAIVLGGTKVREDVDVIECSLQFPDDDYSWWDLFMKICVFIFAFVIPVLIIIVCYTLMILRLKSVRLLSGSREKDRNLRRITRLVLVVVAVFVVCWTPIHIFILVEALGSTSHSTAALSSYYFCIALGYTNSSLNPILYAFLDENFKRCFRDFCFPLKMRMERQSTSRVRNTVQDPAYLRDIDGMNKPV
- Procedure Summary: Signaling (activation of G protein-mediated signals, adenylyl cyclase inhibition) by wild-type KOR
Measure: EC50 (nM)
Numbers only, in nM.

Asked: Dear colleague, I am looking for the recorded EC50 of the following molecule: CCC12CCN(CC3(O)CC3)C(Cc3ccc(O)cc31)C2(C)C (stereo not shown)
Given back: 0.067
